test: LogD7.4 determination by n-octanol/PBS partitioning; format: physicochemical; conditions: n-octanol/phosphate-buffered saline; partitioning between PBS pH 7.4 and octanol
metric.name: logD

* N#C[C@@H]1CC(F)(F)CN1C(=O)CNC(=O)c1ccnc2ccc(OCCCN3CCN(C(=O)c4ccc(OS(=O)(=O)[18F])cc4)CC3)cc12 [[^18F]12] | 1.81

* * *

IC50 values for the compounds below.
target: human recombinant FAP (Homo sapiens, UniProt Q12884); assay: Fluorogenic FAP enzyme inhibition assay (BPS Bioscience #80210, Ala-Pro-AMC substrate)
Sequence (Q12884 whole entry): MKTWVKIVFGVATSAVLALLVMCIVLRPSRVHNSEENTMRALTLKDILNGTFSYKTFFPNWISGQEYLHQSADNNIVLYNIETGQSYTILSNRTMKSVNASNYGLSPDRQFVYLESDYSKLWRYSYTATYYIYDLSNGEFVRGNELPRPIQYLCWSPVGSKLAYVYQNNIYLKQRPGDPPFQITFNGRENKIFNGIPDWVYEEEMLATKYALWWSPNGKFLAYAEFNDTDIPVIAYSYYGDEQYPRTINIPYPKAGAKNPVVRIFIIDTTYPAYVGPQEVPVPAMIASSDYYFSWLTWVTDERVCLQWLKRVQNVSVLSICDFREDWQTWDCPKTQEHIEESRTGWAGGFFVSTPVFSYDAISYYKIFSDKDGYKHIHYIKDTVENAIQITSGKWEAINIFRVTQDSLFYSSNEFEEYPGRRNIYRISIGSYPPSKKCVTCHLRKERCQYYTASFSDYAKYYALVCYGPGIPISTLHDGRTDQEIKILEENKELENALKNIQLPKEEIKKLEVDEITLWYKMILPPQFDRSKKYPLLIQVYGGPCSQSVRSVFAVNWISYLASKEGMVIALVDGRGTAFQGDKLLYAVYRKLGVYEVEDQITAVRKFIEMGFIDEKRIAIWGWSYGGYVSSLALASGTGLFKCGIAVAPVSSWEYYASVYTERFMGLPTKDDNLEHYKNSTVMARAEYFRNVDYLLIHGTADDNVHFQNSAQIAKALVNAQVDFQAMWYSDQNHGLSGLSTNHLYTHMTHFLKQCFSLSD
metric.name: IC50 (nM)

• N#C[C@@H]1CC(F)(F)CN1C(=O)CNC(=O)c1ccnc2ccc(OCCCN3CCN(C(=O)c4cccc(OS(=O)(=O)F)c4)CC3)cc12 = 4.17
• N#C[C@@H]1CC(F)(F)CN1C(=O)CNC(=O)c1ccnc2ccc(OCCCN3CCN(C(=O)c4ccc(OS(=O)(=O)F)cc4)CC3)cc12 = 9.63
